# method summary: Solubility measurement in solubilizers (aqueous phosphate buffer at pH 7.4)
# Assay type: physicochemical
# condition notes: 5% Cremophor RH40 in phosphate buffer, pH 7.4, aqueous with cosolvent or surfactant or cyclodextrin, thermodynamic from solid, 5% Cremophor RH40, phosphate buffer pH 7.4, 0.5 h
# Description: Solubility analysis of Compound 1 (N-(benzo[d]thiazol-2-yl)-4-((2-hydroxy-3-methoxybenzyl)amino)benzenesulfonamide) was performed in a total of 25 media including organic solvent, co-solvent, solubilizer and buffer, for 2 hours at room temperature. […] 5-10 mg of Compound 1 was added to 0.5-1 mL each medium (target concentration was 10 mg/mL), vortexed briefly to create a suspension. […] The supernatant was collected and analyzed by HPLC.
endpoint name: solubility at 0.5 h (µg/mL)
State just the number; it will be interpreted in µg/mL.

Challenge: So what's the measured solubility at 0.5 h for this one? COc1cccc(CNc2ccc(S(=O)(=O)Nc3nc4ccccc4s3)cc2)c1O
Response given: 47

====

# method summary: Solubility measurement in solvents
# Assay type: physicochemical
# condition notes: n-Hexane, organic solvent or mixture, thermodynamic from solid, n-Hexane, 2 h, room temperature; LOQ = 0.00015 mg/mL; read-out: Solubility at 2 h
endpoint name: solubility at 2 h

Challenge: solubility at 2 h lookup needed for COc1cccc(CNc2ccc(S(=O)(=O)Nc3nc4ccccc4s3)cc2)c1O , thanks.
Response given: < 0.15 µg/mL

====

# method summary: Solubility measurement in buffers over a pH range
# Format: physicochemical
# condition notes: bicarbonate buffer pH 10.0, pH 10, aqueous buffer, thermodynamic from solid, Bicarbonate, pH 10.0, 2 h (measured pH 10.08)
endpoint name: solubility at 2 h (µg/mL)
Field format: number, assumed µg/mL, no unit text.

Challenge: Value lookup for solubility at 2 h; key = COc1cccc(CNc2ccc(S(=O)(=O)Nc3nc4ccccc4s3)cc2)c1O
Response given: 0.576

====

# method summary: Solubility measurement in solubilizers (aqueous phosphate buffer at pH 7.4)
# Assay type: physicochemical
# condition notes: 20% Captisol in phosphate buffer, pH 7.4, aqueous with cosolvent or surfactant or cyclodextrin, thermodynamic from solid, 20% Captisol, phosphate buffer pH 7.4, 2 h; read-out: Solubility at 2 h
endpoint name: solubility at 2 h (µg/mL)
Expressed in µg/mL, but write only the number.

Challenge: Any idea what its solubility at 2 h is? The compound is COc1cccc(CNc2ccc(S(=O)(=O)Nc3nc4ccccc4s3)cc2)c1O
Response given: 110
